Every entry's value here was drawn from patent US20150258192A1.

Known % activity of a selection of sequences
target: CDK5/p25(h) (Homo sapiens, UniProt Q00535); test: Kinase Profiling Assay; type: biochemical; details: peptide 100 μM
Sequence (Q00535 whole entry): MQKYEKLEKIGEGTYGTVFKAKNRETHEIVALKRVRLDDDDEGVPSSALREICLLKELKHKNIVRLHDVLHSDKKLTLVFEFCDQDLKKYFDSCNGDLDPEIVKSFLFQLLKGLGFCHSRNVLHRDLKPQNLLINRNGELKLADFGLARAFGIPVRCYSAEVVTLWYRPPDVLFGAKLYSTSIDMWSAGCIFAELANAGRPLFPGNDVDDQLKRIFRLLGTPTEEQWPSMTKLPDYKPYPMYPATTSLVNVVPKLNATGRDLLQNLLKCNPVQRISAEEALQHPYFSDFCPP
Sequence (Q15078 99-307 partner limits assumed): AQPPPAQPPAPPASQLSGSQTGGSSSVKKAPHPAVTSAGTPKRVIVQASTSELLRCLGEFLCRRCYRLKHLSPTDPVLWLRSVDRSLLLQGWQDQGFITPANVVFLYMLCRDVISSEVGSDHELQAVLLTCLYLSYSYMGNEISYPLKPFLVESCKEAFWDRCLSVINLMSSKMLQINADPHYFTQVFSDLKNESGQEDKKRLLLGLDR
READOUT TYPE: % activity (%)

# SEQ TEXT, READOUT TYPE, READOUT NUMBER
records = [
    ("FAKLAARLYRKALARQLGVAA [MMI-0300]", "% activity", 89),
    ("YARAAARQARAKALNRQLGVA (Mammal) [MMI-0200]", "% activity", 97),
    ("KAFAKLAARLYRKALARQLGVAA [MMI-0400]", "% activity", 92),
    ("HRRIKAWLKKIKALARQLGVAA (Mammal) [MMI-0500]", "% activity", 66),
]
